Source listed as ChEMBL document CHEMBL3988442.

A collection of molecules and their measured Percent Effect
Target: Shiga toxin 2 (Escherichia coli O157:H7) (UniProt P09385+P09386)
Test: E. coli 0.157:H7 Shiga Toxin SOP - stx2 screening assay
Assay type: functional
Set-up: scale not given: direction of the effect not stated beside the values
Settings: 30 µM
Give the number; % is assumed, so skip it.

molecule	Percent Effect (%)
Cc1cn[nH]c1C1CCCCN1C(=O)CCN1CCCCCC1 (centres undefined)	28.2

Data request, read-out Percent Effect, for Cc1nc(CN2CCN(C(=O)c3sccc3C3CC3)CC2)cs1
13.6

Data request, read-out Percent Effect, for c1ccc(CN2C[C@@H]3OCCN(CC4CCCO4)[C@@H]3C2)nc1 (some centres undefined)
4.43

Data request, read-out Percent Effect, for COCCN(Cc1ccoc1)C(=O)c1ccccc1Cl
6.17

Data request, read-out Percent Effect, for Cc1cc(C)n(C2CN(CC(O)c3ccc(F)cc3)C2)n1 (centres undefined)
6.15

Data request, read-out Percent Effect, for CCC(=O)N1CCCC1c1nccnc1Nc1nc(C)cc(C)n1 (centres undefined)
-28.8

Data request, read-out Percent Effect, for COc1cccc(N2CCN(C(=O)C(O)c3cccc(Cl)c3)CC2=O)c1 (centres undefined)
-24.2

Data request, read-out Percent Effect, for Cc1cnn(CC2CCCN2C(=O)c2cc(C)no2)c1 (centres undefined)
16.5

Data request, read-out Percent Effect, for O=S(=O)(NCC1CCN(c2cnccn2)CC1)c1c(F)cccc1F
4.65

Data request, read-out Percent Effect, for Cc1cccnc1NC(=O)CC1(Cn2cnnn2)CCCCC1
2.81

Data request, read-out Percent Effect, for CC(Cn1ccnc1)NC(=O)NCCNC(=O)C(C)C (centres undefined)
11.8

Data request, read-out Percent Effect, for O=C(CN1CCOC(Cn2cccn2)C1)Nc1nncs1 (centres undefined)
-15.4

Data request, read-out Percent Effect, for CC(C)N(C)Cc1cn2c(n1)CN(Cc1ccsc1)CC2
-40.8

Data request, read-out Percent Effect, for Cc1nnc2n1CCN(CCS(=O)(=O)c1ccccc1)C2
-6.96

---

Biological target: Ubiquitin-activating enzyme e1, putative (Leishmania donovani (strain BPK282A1)) (UniProt E9BSI1)
Sequence (whole entry): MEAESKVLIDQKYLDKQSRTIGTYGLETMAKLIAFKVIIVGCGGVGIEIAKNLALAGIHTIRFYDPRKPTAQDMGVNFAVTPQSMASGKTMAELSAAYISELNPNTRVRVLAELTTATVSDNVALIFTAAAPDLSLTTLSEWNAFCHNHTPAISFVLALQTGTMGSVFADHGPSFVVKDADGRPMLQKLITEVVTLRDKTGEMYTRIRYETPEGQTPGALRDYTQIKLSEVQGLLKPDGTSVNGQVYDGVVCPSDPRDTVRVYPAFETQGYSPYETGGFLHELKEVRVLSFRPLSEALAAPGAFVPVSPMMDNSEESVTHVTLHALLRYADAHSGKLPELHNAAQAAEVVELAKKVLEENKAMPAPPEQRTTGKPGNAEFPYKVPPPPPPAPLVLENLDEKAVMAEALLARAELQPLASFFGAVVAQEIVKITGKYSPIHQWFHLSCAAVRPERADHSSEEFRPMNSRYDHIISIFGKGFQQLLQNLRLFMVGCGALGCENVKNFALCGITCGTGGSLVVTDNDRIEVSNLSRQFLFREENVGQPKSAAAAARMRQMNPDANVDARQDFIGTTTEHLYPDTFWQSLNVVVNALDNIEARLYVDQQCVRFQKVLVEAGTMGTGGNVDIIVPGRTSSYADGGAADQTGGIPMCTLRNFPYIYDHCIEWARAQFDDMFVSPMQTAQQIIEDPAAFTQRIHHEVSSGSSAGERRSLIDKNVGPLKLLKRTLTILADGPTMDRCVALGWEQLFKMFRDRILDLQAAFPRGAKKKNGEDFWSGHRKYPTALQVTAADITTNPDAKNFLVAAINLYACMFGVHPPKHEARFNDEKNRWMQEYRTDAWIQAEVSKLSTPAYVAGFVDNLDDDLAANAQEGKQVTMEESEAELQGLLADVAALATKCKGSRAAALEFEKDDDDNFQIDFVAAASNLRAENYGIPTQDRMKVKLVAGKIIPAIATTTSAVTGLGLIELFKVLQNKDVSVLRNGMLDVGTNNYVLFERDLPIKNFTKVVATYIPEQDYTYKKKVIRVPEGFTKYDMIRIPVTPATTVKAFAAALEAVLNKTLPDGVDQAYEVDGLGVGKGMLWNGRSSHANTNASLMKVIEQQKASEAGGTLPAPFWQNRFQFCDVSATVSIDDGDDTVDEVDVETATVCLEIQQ
Assay: Leishmania donovani Ubiquitin Activating Enzyme (LdE1)
Assay type: functional
Design: scale not given: direction of the effect not stated beside the values
Details: 30 µM
Results with a measured potency or affinity are listed apart.
A collection of compounds and their measured Percent Effect
Give the number; % is assumed, so skip it.

Data request, read-out Percent Effect, for c1csc(CN2CC[C@H]3C[C@H](c4ccncn4)O[C@@H]3C2)c1
13

Data request, read-out Percent Effect, for O=C(C1CC(=O)N(c2ccccc2Br)C1)N1CCC2(CC1)OCCO2 (stereo unspecified)
-10.7

Data request, read-out Percent Effect, for COCC1CC2(CCN(Cc3ccccn3)CC2)CN1C(C)C (stereo unspecified)
6.49

Data request, read-out Percent Effect, for Cc1nnc(N2CCCC3(CN(Cc4ccncc4)CCO3)C2)o1 (stereo unspecified)
5.48
